Values of IC50 reported for USP28 (Homo sapiens (Human), UniProt Q96RU2) appear below.

A selection of reference data follows.
compound | result value
COc1ccc2c(N)c(C(=O)NCCc3cc(F)c(N4CCNCC4)cc3F)sc2n1 [Compound I-51] | < 200 nM
Cc1ccc2c(N)c(C(=O)NCCc3cccc(C(=O)O)c3)sc2n1 [Example I-175] | 2000 to 10000 nM

Input Cc1ccc2c(N)c(C(=O)NCCc3cc(F)c(N4CCNCC4)c(F)c3F)sc2n1 [Compound I-35] . Output IC50: < 200 nM

* * *

pIC50: −log10 of the molar value.
Values of pIC50 reported for UniProt:Q96RU2 appear below.

compound | test readout | result value
Cc1ccc2c(N)c(C(=O)NCCc3ccc(N4CCNCC4)c(OC(F)F)c3)sc2n1 | pIC50 | 5.70 to 6.70
COc1cc(C)nc2sc(C(=O)NCCc3ccc(N4CCNCC4)cc3)c(N)c12 | pIC50 | 5.00 to 5.70
Nc1c(C(=O)NCCc2ccc(N3CCNCC3)cc2)sc2nc3c(cc12)CCC3O (stereo not shown) | pIC50 | 5.00 to 5.70

Alright, here's another compound for you.
Input Cc1ccc2c(N)c(C(=O)NCCc3ccc(N4CC[C@H]5NCC[C@H]54)cc3)sc2n1 (single isomer, unassigned) . Output pIC50: 5.70 to 6.70
